System: A549 NSCLC
Assay: NCI tumour cell line growth inhibition, 48 h
Here, each record is paired with measured TGI data.
Write down the numeric answer in µM and omit the unit.

Example results:
C=CN1C(=O)[C@H](Oc2ccccc2)[C@@H]1c1ccccc1    85
CS(=O)(=O)Nc1cc(-c2ccc3ncnc(Nc4c(Cl)ccc5c4OCO5)c3c2)cnc1Cl    1.94

Here is another compound to look at.
[ask] Identify the measured TGI of CCCCCCCN=C(N)c1ccc(N2CCN(c3ccc(C(N)=NCCCCCCC)cc3)CC2)cc1 for A549 NSCLC.
[reply] 15

###

Test system: ACHN renal
Test: NCI tumour cell line growth inhibition, 48 h; in the data active = GI50 below about 0.43 µM; inactive = the rest
The reply should name one outcome from t for active, f for inactive

Illustrative cases are given below, each with its answer.
O=C(Nc1ccc(Cl)c(C(F)(F)F)c1)c1ccc(NC2=C(Cl)C(=O)N(Cc3ccccc3)C2=O)cc1    f
CCOC(=O)c1c(-c2ccc(OC)cc2)c(C#N)c2c(C#N)c(N)nn2c1N    f

[ask] What was the test verdict on C[C@@]12CCC[C@@](C)(C(=O)O)C1CC[C@]13CC(=O)[C@](CO)(C1)[C@@H](O)CC32 (some centres not stated) ?
[reply] f

[ask] Further, for Cn1c(=O)c(Oc2ccc(F)cc2)cc2cnc(NC3CCOCC3)nc21 ?
[reply] f

[ask] Further, for CSc1nc(NC2OC(COC(C)=O)C(OC(C)=O)C(OC(C)=O)C2OC(C)=O)c(N=CC=Nc2c(NC3OC(COC(C)=O)C(OC(C)=O)C(OC(C)=O)C3OC(C)=O)nc(SC)n(C)c2=O)c(=O)n1C (configuration not stated) ?
[reply] f

###

Tested on: U251 CNS
Experiment: NCI tumour cell line growth inhibition, 48 h
Reported Property: TGI

CN(C)c1ncnc2c1ncn2CCn1cnc2c(N(C)C)ncnc21    > 100 µM
Oc1cn(-c2ccc(Cl)cc2)nc1-c1n[nH]c(=S)n1-c1ccccc1    30.4 µM

[ask] Identify the measured TGI of C[C@H]1C(=O)O[C@@H]2CCN3CC=C(COC(=O)[C@](C)(O)[C@@]1(C)O)[C@H]23 for U251 CNS.
[reply] > 100 µM

[ask] Further, for CC(=O)NC1=N/C(=C\c2ccc(Cl)cc2)C(=O)N1/C=C1\C(=O)Oc2ccccc2C1=O ?
[reply] > 100 µM

###

Tested on: UACC-257 melanoma
Test: NCI tumour cell line growth inhibition, 48 h
Reported Property: TGI

Example results:
C[Si](C)(C)/C(Br)=C\CCN1C(=O)CCC1=O    > 100 µM
C[C@H]1C(=O)O[C@@H]2CCN3CC=C(COC(=O)[C@](C)(O)[C@@]1(C)O)[C@H]23    > 100 µM
O=C1c2cc3c(cc2-c2c1c1cc(Cl)c(Cl)cc1c(=O)n2C[C@H](O)CO)OCO3    0.217 µM

[ask] Looking for the measured TGI of COc1cc(/C=C/C(=O)Oc2ccc(NC(C)=O)cc2)ccc1C(=O)O/C=C/c1ccccc1 , can you help?
[reply] > 100 µM

[ask] Further, for COc1ccc(/C(=C\C=C(C#N)C#N)Sc2nc3ccccc3s2)cc1 ?
[reply] 23.7 µM

[ask] Further, for Clc1nc(Cl)nc(Nc2cccc3ccccc23)n1 ?
[reply] > 100 µM

###

System: UO-31 renal
Test: NCI tumour cell line growth inhibition, 48 h; in the data active = GI50 below about 0.43 µM; inactive = the rest
The reply should name one outcome from active, inactive

Illustrative cases are given below, each with its answer.
COc1cc(/C=C\c2cc(OC)c(OC)c(OC)c2)cc(N/C=C\C(=O)c2cc(OC)c(OC)c(OC)c2)c1OC    inactive
COc1ccc(-c2nsc3c2NC(=O)CC3c2cccc(OC)c2)cc1 (stereo unspecified)    inactive
Cn1c(Nc2ccc(C(F)(F)F)cc2)nc2cc(Oc3ccnc(-c4ncc(C(F)(F)F)[nH]4)c3)ccc21    active

[ask] What was the test verdict on O=C1CCC/C=C\C[C@H]2C=CC(=O)/C2=C/C[C@H](C/C=C\CC(F)(F)F)O1 ?
[reply] active

[ask] Further, for CCOC(=O)c1c(-c2ccc(OC)cc2)c(C#N)c2c(C#N)c(N)nn2c1N ?
[reply] inactive

[ask] Further, for CN(C)CCC(=O)C(=Cc1ccc(O)cc1)C(=O)CCN(C)C ?
[reply] inactive

###

Here, each record is paired with measured TGI data.
Tested on: M14 melanoma
Assay: NCI tumour cell line growth inhibition, 48 h

Example results:
COc1ccc(/C=C(\C(C)=O)C(=O)Nc2ccccc2)cc1    > 100 µM
[N-]=[N+]=NCc1nc(N)c2c3c(sc2n1)CCCC3    17.7 µM
CC(=O)O[C@H]1CC[C@@]2(C)C(=CC[C@H]3[C@@H]4C/C(=C\c5ccc(N(C)C)cc5)[C@H](OC(C)=O)[C@@]4(C)CC[C@@H]32)C1    36 µM

Here is another compound to look at.
[ask] Looking for the measured TGI of CC(C)C(C/C=C1\CC(CO)(COC(=O)C(C)(C)C)OC1=O)C(C)C (stereo not given) , can you help?
[reply] 29.8 µM

###

Test system: NCI-H23 lung
Assay: NCI tumour cell line growth inhibition, 48 h; in the data active = GI50 below about 0.43 µM; inactive = the rest
The reply should name one outcome from y = active, n = inactive

Illustrative cases are given below, each with its answer.
O=[N+]([O-])c1ccc(CI)cc1    n
CC1CCN(C(=O)OCc2nc3nc(Cl)nc(N4CCOCC4)c3[nH]2)CC1    n
COC(=O)C1=CN(CC2=CC(=O)C(C)=CC2=O)C=C(C(=O)OC)C1c1cccc(OC)c1    n
CCOC(=O)c1c(-c2ccc(OC)cc2)c(C#N)c2c(C#N)c(N)nn2c1N    n
CS(=O)(=O)Nc1cc(-c2ccc3ncnc(Nc4c(Cl)ccc5c4OCO5)c3c2)cnc1Cl    y
NCCc1cc(O)c(O)cc1O    n
CN(C)CCC(=O)C(=Cc1ccc(O)cc1)C(=O)CCN(C)C    n
O=[P@@]1(c2ccccc2)O[C@H](COCc2ccccc2)[C@@H](OCc2ccccc2)[C@H](OCc2ccccc2)[C@H]1NCc1ccccc1    n
Cc1ccc(Nc2oc(-c3ccccc3)nc2[P+](c2ccccc2)(c2ccccc2)c2ccccc2)cc1    n
Cn1c(Nc2ccc(C(F)(F)F)cc2)nc2cc(Oc3ccnc(-c4ncc(C(F)(F)F)[nH]4)c3)ccc21    y

[ask] What was the test verdict on Cc1ccc2c(C3C(C#N)=C(N)Oc4cc5ccccc5cc43)cc(=O)oc2c1 (configuration not stated) ?
[reply] n

[ask] Further, for COc1cc(/C=C\c2cc(OC)c(OC)c(OC)c2)cc(N/C=C\C(=O)c2cc(OC)c(OC)c(OC)c2)c1OC ?
[reply] n

[ask] Further, for O=[N+]([O-])c1cccc2ccc(N/N=C/c3ccccc3O)nc12 ?
[reply] n

###

Test system: HCT-15 colon
Assay: NCI tumour cell line growth inhibition, 48 h
Reported Property: TGI

Example results:
C[N+](C)(C)CC1CCC/C1=N\OC(=O)c1ccccc1 (stereo unspecified)    > 100 µM
CCCCC/C=C1\CCC(CN(C)C)C1=O (stereo unspecified)    10 µM
CCOC(=O)/C=C/c1ccc(C#Cc2ccccc2)cc1    > 100 µM

[ask] Looking for the measured TGI of CN(C)CCC(=O)C(=Cc1ccc(O)cc1)C(=O)CCN(C)C , can you help?
[reply] > 100 µM

[ask] Further, for C=CCN(C(=O)CNC(=O)C(F)(F)F)c1cc(OCc2ccccc2)c2c(c1)c(C)cn2S(=O)(=O)c1ccccc1 ?
[reply] > 100 µM

[ask] Further, for COc1ccc(-c2nnc(N3CCN(C(=O)CN4CCN(c5ccccc5)CC4)CC3)nc2-c2ccc(OC)cc2)cc1 ?
[reply] > 100 µM

[ask] Further, for CCc1nc(N)nc(N)c1-c1ccc([N+](C)(C)C)cc1 ?
[reply] > 100 µM

[ask] Further, for CCN(Cc1ccc(F)cc1)c1ccc(CO)c(Br)c1 ?
[reply] > 52.6 µM

[ask] Further, for Clc1nc(Cl)nc(Nc2cccc3ccccc23)n1 ?
[reply] > 100 µM

[ask] Further, for CC1(C)CC(=O)CC(=Nc2ccc([N+](=O)[O-])cc2)C1 ?
[reply] > 100 µM

[ask] Further, for O=P1(c2ccccc2)Nc2ccccc2SSc2ccccc2N1 ?
[reply] 35.8 µM

###

System: IGROV1 ovarian
Assay: NCI tumour cell line growth inhibition, 48 h
Reported Property: TGI

Example results:
[N-]=[N+]=N/C1=C/CCCCC(=O)C1    > 100 µM
CCOC(=O)c1c2c(n(Cc3ccccc3)c1C)C(=O)C(=O)c1ccccc1-2    > 100 µM
CC(C)=CCc1cc(O)cc2c1OC(C=C(C)C)C1=C2C(=O)C2=C(C1=O)S(=O)(=O)CCN2 (stereo not given)    9.17 µM
CC(=O)N1CCC(=O)/C(=C/c2ccccc2)C1    46.4 µM
Cc1nn(C(=O)CC(=O)Nc2ccc(Cl)cc2)c(C)c1N=Nc1ccccc1C(=O)O    > 100 µM
COc1cc(/C=C/C(=O)c2cccc(-n3cc(-c4ccc(Cl)cc4)[nH]c3=O)c2)ccc1O    5.61 µM
COCOC1C=CCCCC2=CC(C)=C(CC1)O2 (stereo not given)    > 100 µM
Cc1cccc2c1Sc1ccccc1C2NC(=O)CCN(C)C (stereo not given)    > 100 µM
Cc1ccc(S(=O)OCc2c(C)c(C)c(COS(=O)c3ccc(C)cc3)c(C)c2C)cc1 (stereo not given)    > 100 µM

Here is another molecule to look at.
[ask] Looking for the measured TGI of CSc1ccsc1-c1sc(-c2cc(SC)c(-c3sc(-c4cc(SC)c(-c5sccc5SC)s4)cc3SC)s2)cc1SC , can you help?
[reply] > 100 µM
